Experiment: Half-life under varying pH conditions
Assay type: physicochemical
Details: buffer; pH 7.0
Readout: half-life (h)
Express the result in h but write the number alone.

query: Find the recorded half-life belonging to CCOC(=O)C1=C(N)Oc2ccc(Br)cc2C1C(C#N)C(=O)OCC (stereo not shown) [HA 14-1, reference compound] and report it.
result: 1.86

---

Experiment: Half-life under varying pH conditions
Type: physicochemical
Conditions: buffer; pH 6.0
# maps each entry to its half-life
Express the result in min but write the number alone.

CCOC(=O)C1=C(N)Oc2ccc(Br)cc2C1C(C#N)C(=O)OCC (centres unmarked) [HA 14-1, reference compound] | 125

We now examine a further compound.
query: Find the recorded half-life belonging to CCOC(=O)C1=C(N)Oc2ccc(Br)cc2C1C(C)(C#N)C(=O)OCC (centres unmarked) [Compound 3] and report it.
result: 165
